- Tested System: T1, soluble form of GPC3 core protein (human, UniProt P51654 25-563)
- T1 construct: not shown: His tag added to the C-terminus
- T1 sequence (P51654 25-563 S495A/S509A, form in doubt): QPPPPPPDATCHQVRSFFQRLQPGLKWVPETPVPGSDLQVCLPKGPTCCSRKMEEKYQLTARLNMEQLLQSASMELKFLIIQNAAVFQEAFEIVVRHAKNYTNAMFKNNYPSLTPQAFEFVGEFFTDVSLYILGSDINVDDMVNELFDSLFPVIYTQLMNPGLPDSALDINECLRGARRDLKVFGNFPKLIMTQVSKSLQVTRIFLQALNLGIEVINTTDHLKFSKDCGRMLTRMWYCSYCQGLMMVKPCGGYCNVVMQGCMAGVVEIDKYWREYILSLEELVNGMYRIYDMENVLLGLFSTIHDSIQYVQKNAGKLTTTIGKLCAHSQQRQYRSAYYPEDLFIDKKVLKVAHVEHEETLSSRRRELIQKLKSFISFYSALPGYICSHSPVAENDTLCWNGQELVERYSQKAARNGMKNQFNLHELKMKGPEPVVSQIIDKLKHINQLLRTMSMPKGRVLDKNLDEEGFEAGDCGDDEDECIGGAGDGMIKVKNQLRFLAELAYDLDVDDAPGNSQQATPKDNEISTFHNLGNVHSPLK
- Experiment Description: ELISA on GPC3 (the legend says only GPC3; the filing's ELISA uses plates coated with soluble GPC3 core protein) [upper panel]
Reported Endpoint: EC50 (read off the curve)

[[record]]
binder = "humanized GC33 H chain ver.c / L chain ver.a (antibody, V domains shown) VH: QVQLVESGAEVKKPGASVKVSCKASGYTFTDYEMHWVRQAPGQGLEWMGALDPKTGDTAYSQKFKGRVTLTADESTSTAYMELSSLRSEDTAVYYCTRFYSYTYWGQGTLVTVSS VL: DVVMTQSPLSLPVTPGEPASISCRSSQSLVHSNGNTYLHWYLQKPGQSPQLLIYKVSNRFSGVPDRFSGSGSGTDFTLKISRVEAEDVGVYYCSQNTHVPPTFGQGTKLEIK"
experimental_result = "~0.01 µg/mL"

